Test system: Pseudomonas aeruginosa
assay-procedure: Minimum inhibitory concentration against Pseudomonas aeruginosa in presence of LVFX substrate, (100% growth inhibition)
Type: functional
Would you mind telling me the reported MPC8 of each entry?
Answers are plain numbers, in µg/mL.

CC(C)c1csc(CCc2ccn3c(=O)c(C#CC(=O)O)c(N4CCOCC4)nc3c2)n1 : 16

Now for a further compound.
[in] Give MPC8 for this entry on Pseudomonas aeruginosa: CC(C)c1csc(CCc2ccn3c(=O)c(/C=C/C(=O)O)c(N4CCCC(N(C)C)C4)nc3c2)n1 (centres undefined)
[out] 128

* * *

System: Pseudomonas aeruginosa
assay-procedure: Minimum inhibitory concentration against Pseudomonas aeruginosa in presence of LVFX substrate, (100% growth inhibition)
Format: functional
measured-parameter: MPC8 (µg/mL)
Numbers only, in µg/mL.

Past entries and their recorded results:
CC(C)c1csc(CCc2ccn3c(=O)c(/C=C/C(=O)O)c(N4CCC(O)C4)nc3c2)n1 (stereo not drawn) : 32
CC(C)c1csc(CCc2ccn3c(=O)c(/C=C/C(=O)O)c(N4CCOCC4)nc3c2)n1 : 16
CC(C)c1csc(CCc2ccn3c(=O)c(/C=C/C(=O)O)c(N4CCC(O)CC4)nc3c2)n1 : 8
CC(C)c1csc(CCc2ccn3c(=O)c(/C=C/C(=O)O)c(N[C@H](CO)[C@@H](O)c4ccccc4)nc3c2)n1 (single isomer, unassigned) : 64
CC(C)c1csc(CCc2ccn3c(=O)c(/C=C/C(=O)O)c(N4CCC(CO)CC4)nc3c2)n1 : 8
CC(C)c1csc(CCc2ccn3c(=O)c(/C=C/C(=O)O)c(N4CCCCC4CO)nc3c2)n1 (stereo not drawn) : 64

Dear colleague, could you please provide MPC8 for the compounds listed below?
1. CCCC(CC)Nc1nc2cc(CCc3nc(C(C)C)cs3)ccn2c(=O)c1/C=C/C(=O)O (stereo not drawn)
2. CC(C)c1csc(CCc2ccn3c(=O)c(/C=C/C(=O)O)c(N4CCCC(OC(N)=O)C4)nc3c2)n1 (stereo not drawn)
3. CC(C)c1csc(/C=C/c2cccc(NC(=O)Cc3ccccc3C(=O)O)c2)n1
4. CC(C)c1csc(CCc2ccn3c(=O)c(/C=C/C(=O)O)c(N4CCN(C)CC4)nc3c2)n1
5. CC(C)c1csc(CCc2ccn3c(=O)c(/C=C/C(=O)O)c(N4CCCC(O)C4)nc3c2)n1 (stereo not drawn)
6. CC(C)Nc1nc2cc(CCc3nc(C(C)C)cs3)ccn2c(=O)c1/C=C/C(=O)O
7. CC(C)c1csc(CCc2ccn3c(=O)c(/C=C/C(=O)O)c(NCCc4ccncc4)nc3c2)n1
8. CC(C)c1csc(CCc2ccn3c(=O)c(/C=C/C(=O)O)c(N4CCC(OC(N)=O)CC4)nc3c2)n1

[out]
1. 16
2. 8
3. 2
4. 32
5. 8
6. 64
7. 64
8. 16

* * *

Test system: Pseudomonas aeruginosa
assay-procedure: Minimum inhibitory concentration against Pseudomonas aeruginosa in presence of LVFX substrate, (100% growth inhibition)
Assay type: functional
measured-parameter: MPC8

CC(C)c1csc(CCc2ccn3c(=O)c(CCC(=O)O)c(N4CCCC(O)C4)nc3c2)n1 (centres undefined) : >128 µg/mL
CC(C)c1csc(CCc2ccn3c(=O)c(/C=C/C(=O)O)c(N4CCCN(C)CC4)nc3c2)n1 : 128 µg/mL
CC(C)c1csc(CCc2ccn3c(=O)c(/C=C/C(=O)O)c(N4CCCC(CO)C4)nc3c2)n1 (centres undefined) : 16 µg/mL
CCCNc1nc2cc(CCc3nc(C(C)C)cs3)ccn2c(=O)c1/C=C/C(=O)O : >32 µg/mL
CC(C)c1csc(CCc2ccn3c(=O)c(/C=C/C(=O)O)c(N4CCCC4)nc3c2)n1 : 8 µg/mL

Dear colleague, could you please provide MPC8 for the compounds listed below?
1. CC(C)c1csc(CCc2ccn3c(=O)c(/C=C/C(=O)O)c(N4CCCCC4)nc3c2)n1
2. CC(C)c1csc(CCc2ccn3c(=O)c(/C=C/C(=O)O)c(NCc4ccccn4)nc3c2)n1

[out]
["4 µg/mL", "128 µg/mL"]

Dear colleague, could you please provide MPC8 for the compounds listed below?
1. CC(C)c1csc(CCc2ccn3c(=O)c(/C=C/c4nn[nH]n4)c(N4CCCC(O)C4)nc3c2)n1 (centres undefined)
2. CC(C)c1csc(CCc2ccn3c(=O)c(/C=C/C(=O)O)c(N4CC[C@@H](N(C)C)C4)nc3c2)n1

[out]
["4 µg/mL", "128 µg/mL"]

* * *

System: Pseudomonas aeruginosa
assay-procedure: Minimum inhibitory concentration against Pseudomonas aeruginosa in presence of LVFX substrate, (100% growth inhibition)
Type: functional
measured-parameter: MPC8

Dear colleague, could you please provide MPC8 for the molecules listed below?
1. CC(C)c1csc(CCc2ccn3c(=O)c(/C=C/C(=O)O)c(N[C@H]4CC[C@H](O)CC4)nc3c2)n1
2. CC(C)c1csc(CCc2ccn3c(=O)c(/C=C/C(=O)O)c(NCC4CCCCC4)nc3c2)n1
3. CCC(CC)Nc1nc2cc(CCc3nc(C(C)C)cs3)ccn2c(=O)c1/C=C/C(=O)O

[out]
1. >64 µg/mL
2. >64 µg/mL
3. >128 µg/mL

[in] Provide one value: measured MPC8 of CC(C)c1csc(CCc2ccn3c(=O)c(-c4nnn[nH]4)cnc3c2)n1
[out] >16 µg/mL
